Data origin, for the record: patent US20220062233A1

System: wild-type HTT
Assay: Wild-type HTT assay in lymphoblastoid cells (LBC), Western blot
Assay type: cell-based, human
Conditions: 3 days compound treatment, read-out: LBC IC20 (nM) wtHTT
PARAMETER_MEASURED: IC20

Guide cases for IC20, answers given:
1. CC(C)(O)c1ccc(CN[C@@H]2CCCc3c2[nH]c2ccc(Br)nc32)s1; > 1000 nM
2. OB(O)c1cccc(CN[C@@H]2CCCc3c2[nH]c2ccc(Br)cc32)c1 (single isomer, unassigned); > 1000 nM
3. OCc1ccc(CNC2CCCc3c2[nH]c2ccc(Br)cc32)cc1 (centres unmarked); > 1000 nM
4. CC(C)(O)c1cccc(CN[C@@H]2CCCc3c2[nH]c2ccc(Br)cc32)c1 (single isomer, unassigned); > 1000 nM

Consider the record given below.
Q: Entry OB(O)c1ccc(CN[C@@H]2CCCc3c2[nH]c2ccc(Br)cc32)cc1 has what IC20?
Ans: > 1000 nM
